Molecular target: ZFP SBS#583 (synthetic)
Sequence (chain, as listed by the source): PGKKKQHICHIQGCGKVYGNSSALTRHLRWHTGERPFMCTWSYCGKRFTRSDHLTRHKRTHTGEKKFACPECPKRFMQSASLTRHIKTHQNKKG
Assay: EMSA
Conditions: tags: MBP fusion

{"columns": ["BINDER", "Kd, nM"],
 "data": [
  ["GTAGGGGTTG (dsDNA) DNA 1: GTAGGGGTTG DNA 2: CAACCCCTAC", 46]
]}
